Target: Intestinal-type alkaline phosphatase (Homo sapiens, UniProt P09923)
Sequence (P09923 whole entry, looked up): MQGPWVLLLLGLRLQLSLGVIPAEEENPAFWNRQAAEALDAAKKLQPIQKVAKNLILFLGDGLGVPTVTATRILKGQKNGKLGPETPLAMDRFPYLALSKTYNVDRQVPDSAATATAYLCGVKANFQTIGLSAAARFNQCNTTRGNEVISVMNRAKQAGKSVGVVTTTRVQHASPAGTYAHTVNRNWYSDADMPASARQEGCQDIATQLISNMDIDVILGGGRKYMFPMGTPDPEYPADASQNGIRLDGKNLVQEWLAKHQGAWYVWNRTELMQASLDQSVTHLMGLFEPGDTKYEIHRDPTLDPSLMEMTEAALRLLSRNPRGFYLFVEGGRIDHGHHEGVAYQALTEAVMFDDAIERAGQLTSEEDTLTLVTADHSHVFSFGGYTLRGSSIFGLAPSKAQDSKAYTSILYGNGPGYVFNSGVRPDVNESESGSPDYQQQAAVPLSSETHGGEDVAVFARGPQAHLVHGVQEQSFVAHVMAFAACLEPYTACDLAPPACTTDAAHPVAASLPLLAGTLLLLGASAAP
Assay: inhibition of intestinal alkaline phosphatase – biochemical, luminescence, dose response (AID 1017)
pIC50: −log10 of the molar value.
Parameter pIC50: see the listing below.

Check out these entries, answers already filled in.
Field pIC50 (system: Intestinal-type alkaline phosphatase (Homo sapiens, UniProt P09923)) for entry "COC(=O)c1cc(-c2ccccc2)n[nH]1" = < 4.00

Fill in: Intestinal-type alkaline phosphatase (Homo sapiens, UniProt P09923) pIC50 for "COc1ccc(C)cc1S(=O)(=O)Nc1cnc2ccccc2c1" = < 4.00

Recorded pIC50 for "COc1ccc(OC)c(S(=O)(=O)Nc2cnc3ccccc3c2)c1" on Intestinal-type alkaline phosphatase (Homo sapiens, UniProt P09923) was < 4.00

***
"Cn1nc(C(=O)O)cc1-c1ccc(F)cc1" tested on Intestinal-type alkaline phosphatase (Homo sapiens, UniProt P09923) gave pIC50: < 4.00

Given the compound "CCOc1ccc(Cl)cc1S(=O)(=O)Nc1cccnc1" and test system Intestinal-type alkaline phosphatase (Homo sapiens, UniProt P09923), the measured pIC50 is < 4.00

Record for "COC(=O)c1cc(-c2ccc(Br)cc2)n[nH]1" under target or system Intestinal-type alkaline phosphatase (Homo sapiens, UniProt P09923): pIC50 reported as < 4.00

Bench note, Intestinal-type alkaline phosphatase (Homo sapiens, UniProt P09923): entry CCOC(=O)c1cc(-c2ccc(Cl)cc2)n[nH]1 [MLS-0111582.0001] , its pIC50 = < 4.00

Sample "Cc1ccc(-n2nnnc2SCC(=O)c2ccc(O)c(O)c2)cc1" , system: Intestinal-type alkaline phosphatase (Homo sapiens, UniProt P09923). Its pIC50 is 5.47

Assay Intestinal-type alkaline phosphatase (Homo sapiens, UniProt P09923), sample "Cn1nc(-c2ccc(F)cc2)cc1C(=O)O" , pIC50 read: < 4.00

Lab entry: Intestinal-type alkaline phosphatase (Homo sapiens, UniProt P09923) assay, compound "Cn1c(SCC(=O)c2ccc(O)c(O)c2)nnc1-c1ccccc1" , pIC50 = < 4.00

Bench note, Intestinal-type alkaline phosphatase (Homo sapiens, UniProt P09923): entry "CCn1c(CSc2nc3ccccc3s2)nnc1SCC(=O)c1ccc(O)c(O)c1" , its pIC50 = < 4.00

Fill in: Intestinal-type alkaline phosphatase (Homo sapiens, UniProt P09923) pIC50 for "O=C(c1[nH]nc2c1COc1ccccc1-2)N1CCCC1" = < 4.00

The compound "O=C(O)c1cc(-c2ccccc2Cl)n[nH]1" , when measured on Intestinal-type alkaline phosphatase (Homo sapiens, UniProt P09923), yielded pIC50 of 4.36

Bench note, Intestinal-type alkaline phosphatase (Homo sapiens, UniProt P09923): entry "C=CCn1c(SCC(=O)c2ccc(O)c(O)c2)nnc1-c1ccccc1" , its pIC50 = 5.00

The reported Intestinal-type alkaline phosphatase (Homo sapiens, UniProt P09923) pIC50 of "Cc1cc(C)nc(SCC(=O)c2ccc(O)cc2)n1" is < 4.00

###

Target: Intestinal-type alkaline phosphatase (Homo sapiens)
Assay: inhibition of intestinal alkaline phosphatase – biochemical, luminescence, dose response (AID 1017)
pIC50: −log10 of the molar value.
parameter-measured: pIC50

Noted for "Cc1cnn(CC(=O)c2ccc(O)c(O)c2)c1" : its pIC50 reads 4.27

[I] O=C1Nc2ccccc2C1C=NCCc1ccc(O)c(O)c1 (stereo not given)
[II] O=C(CSc1nnc(-c2ccccc2)[nH]1)c1ccc(O)c(O)c1
Problem: Given the entries I and II , determine which has the lower reported pIC50. Kindly state the label of the option you pick. I

###

Here, each record is paired with measured pIC50 data.
Biological target: Intestinal-type alkaline phosphatase (Homo sapiens, UniProt P09923)
Test: inhibition of intestinal alkaline phosphatase – biochemical, luminescence, dose response (AID 1017)
pIC50: −log10 of the molar value.

Example entries begin here.
// "COc1cc(C)c(Cl)cc1S(=O)(=O)Nc1cccnc1" : pIC50 value = < 4.00

Data point: "O=C(Cn1cnc2ccccc21)c1ccc(O)c(O)c1" ; pIC50 = 4.83

Consider "O=C1c2c(Cl)c(Cl)c(Cl)c(Cl)c2C(=O)N1c1nnc(CCc2ccccc2)[nH]1" . Its measured pIC50 is < 4.00

Just so you know, measured pIC50 for "COc1ccc(OC)c(S(=O)(=O)Nc2cccnc2)c1" came out at < 4.00

Lab book: pIC50 of "O=C1c2ccccc2C(=O)C1c1nc2ccccc2[nH]1" noted as < 4.00

Measured pIC50 of "O=C(O)c1ccc2c(c1)C(=O)N(c1nc(-c3cccnc3)n[nH]1)C2=O" : 4.39

Record COC(=O)c1cc(-c2ccc(OC)cc2)[nH]n1 [MLS-0091975.0001] , field pIC50: < 4.00

Lab book: pIC50 of "CCCCOc1ccc(-c2cc(C(=O)OC)[nH]n2)cc1" noted as < 4.00

pIC50 reading for "COc1ccc(C)cc1S(=O)(=O)Nc1ccc2ccccc2c1" : < 4.00

For this compound ( "CCc1nccn1CC(=O)c1ccc(O)c(O)c1" ), measured pIC50 is < 4.00

***
Form: compound = "COc1ccc(C)cc1S(=O)(=O)Nc1cccnc1" ; pIC50 = < 4.00

Entry "COc1ccc(C(=O)CSc2nc(C)cc(C)n2)cc1" ; pIC50 = < 4.00

Notebook: CCc1nnc(SCC(=O)c2ccc(O)c(O)c2)[nH]1 [MLS-0315685.0001] , pIC50 read as 5.90

Lookup result for "O=C1c2ccccc2C(=O)N1c1nnc[nH]1" ; measured pIC50: < 4.00

Measured pIC50 of "CCOC(=O)c1cc(-c2ccc3c(c2)OCCO3)n[nH]1" : < 4.00

Field pIC50 (entry "Cc1nc2ccccc2n1CC(=O)c1ccc(O)c(O)c1" ) reads < 4.00

###

Collected pIC50 values appear next to each entry.
Biological target: Intestinal-type alkaline phosphatase (Homo sapiens)
Test: inhibition of intestinal alkaline phosphatase – biochemical, luminescence, dose response (AID 1017)
pIC50: −log10 of the molar value.

Example cases with answers are listed next.
Documented pIC50 of "O=C(CSc1nnc(-c2ccccc2)[nH]1)c1ccc(O)cc1O" : < 4.00

Per the records, this compound ( "COc1ccc(-c2[nH]nc3oc(=O)cc(C)c23)cc1" ) has pIC50 equal to < 4.00

// pIC50 value for "COc1ccccc1-c1nc(SCC(=O)c2ccc(O)c(O)c2)n[nH]1" : < 5.50

compound "COC(=O)c1cc(-c2ccc3ccccc3c2)[nH]n1" , pIC50 observed: < 4.00

According to the records, this compound "Cc1cc(C)nc(SCC(=O)c2ccc(O)c(O)c2)n1" displays pIC50 of 4.31

Others:
Kindly note the recorded pIC50 for "C=CCn1c(SCC(=O)c2ccc(O)c(O)c2)nnc1-c1cccc(OC)c1" , which is 4.88

Reported pIC50 for "Oc1cc(-c2cccc3ccccc23)[nH]n1" was < 4.00

// recorded pIC50 for "C=CCn1c(SCC(=O)c2ccc(O)c(O)c2)nnc1-c1cccnc1" : 4.39

Query "O=C(CSc1nnc(-c2ccccc2Cl)[nH]1)c1ccc(O)c(O)c1" yields pIC50 of < 4.00

Item: "O=C(CNc1ccncc1)c1ccc(O)c(O)c1" | pIC50: < 4.00

Noted for "Cc1cc(=O)oc2n[nH]c(-c3ccccc3)c12" : its pIC50 reads < 4.00

Looking up "COC(=O)c1cc(-c2ccc(Cl)cc2Cl)n[nH]1" , I see its pIC50 listed as < 4.00

Measured pIC50 of "O=C1c2c(Cl)c(Cl)c(Cl)c(Cl)c2C(=O)N1c1nc(Cc2ccccc2)n[nH]1" : < 4.00

pIC50 measured on "COC(=O)c1cc(-c2ccc(C)cc2C)n[nH]1" = < 4.00

"COc1ccc(-n2nnnc2SCC(=O)c2ccc(O)c(O)c2)cc1" has a reported pIC50 of 5.36

Data point: "O=C1c2c(Cl)c(Cl)c(Cl)c(Cl)c2C(=O)N1c1nnc[nH]1" ; pIC50 = < 5.00
